target: HLA-A*02:01; assay: thermal melting temperature (Tm) of peptide-HLA complex; higher = more thermostable pHLA complex; settings: C1R-A*02:01;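 further: lysates heated 10 min at 37–73 °C, complexes pulled down with pan-HLA I antibody, peptide signal by DIA-MS relative to 37 °C, Tm where half the complex is unfolded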
Over roughly 1,100 sequences, “thermal melting temperature (Tm) of peptide-HLA complex” has its median near 58; the lowest 2% begin near 42. The sample as a whole holds a higher share of the lowest values than the screen did.
Property measured: thermal melting temperature (°C)

[[record]]
seq_string = "RLMNDMTAV"
property_measured = "thermal melting temperature"
result_units = "°C"
numeric_result = 58.9

[[record]]
seq_string = "LLRDGIELV"
property_measured = "thermal melting temperature"
result_units = "°C"
numeric_result = 57.8

[[record]]
seq_string = "RLYQGINQL"
property_measured = "thermal melting temperature"
result_units = "°C"
numeric_result = 55.9

[[record]]
seq_string = "LMGPVVHEV"
property_measured = "thermal melting temperature"
result_units = "°C"
numeric_result = 46.4

[[record]]
seq_string = "MTDPIRILV"
property_measured = "thermal melting temperature"
result_units = "°C"
numeric_result = 41.9

[[record]]
seq_string = "AQFEHTILL"
property_measured = "thermal melting temperature"
result_units = "°C"
numeric_result = 58.1

[[record]]
seq_string = "SLLDPVPEV"
property_measured = "thermal melting temperature"
result_units = "°C"
numeric_result = 62.5

[[record]]
seq_string = "KIFEMGPVFTL"
property_measured = "thermal melting temperature"
result_units = "°C"
numeric_result = 52.7

[[record]]
seq_string = "VLADQEVRL"
property_measured = "thermal melting temperature"
result_units = "°C"
numeric_result = 58.4

[[record]]
seq_string = "SLHEFLVNL"
property_measured = "thermal melting temperature"
result_units = "°C"
numeric_result = 61.5

[[record]]
seq_string = "GLIDGRLTI"
property_measured = "thermal melting temperature"
result_units = "°C"
numeric_result = 54

[[record]]
seq_string = "YLLTESSKL"
property_measured = "thermal melting temperature"
result_units = "°C"
numeric_result = 55.2

[[record]]
seq_string = "ELMEQVPHI"
property_measured = "thermal melting temperature"
result_units = "°C"
numeric_result = 48.9

[[record]]
seq_string = "YLWPRGSPAL"
property_measured = "thermal melting temperature"
result_units = "°C"
numeric_result = 41.3

[[record]]
seq_string = "TLDEYTTRV"
property_measured = "thermal melting temperature"
result_units = "°C"
numeric_result = 52.2

[[record]]
seq_string = "KLQDQIFNL"
property_measured = "thermal melting temperature"
result_units = "°C"
numeric_result = 56

[[record]]
seq_string = "VLAPHLTRA"
property_measured = "thermal melting temperature"
result_units = "°C"
numeric_result = 53

[[record]]
seq_string = "RLWNETVEL"
property_measured = "thermal melting temperature"
result_units = "°C"
numeric_result = 63.7

[[record]]
seq_string = "FTQDSNYLL"
property_measured = "thermal melting temperature"
result_units = "°C"
numeric_result = 49.1

[[record]]
seq_string = "RLGGIPVGV"
property_measured = "thermal melting temperature"
result_units = "°C"
numeric_result = 55.9

[[record]]
seq_string = "YLDIKGLLDV"
property_measured = "thermal melting temperature"
result_units = "°C"
numeric_result = 56

[[record]]
seq_string = "ALSKEGIVAL"
property_measured = "thermal melting temperature"
result_units = "°C"
numeric_result = 59.5

